The measured values listed here are drawn from ChEMBL document CHEMBL4261656.

# test.target: Aldo-keto reductase family 1 member C3 (Homo sapiens, UniProt P42330)
# Sequence (P42330 whole entry): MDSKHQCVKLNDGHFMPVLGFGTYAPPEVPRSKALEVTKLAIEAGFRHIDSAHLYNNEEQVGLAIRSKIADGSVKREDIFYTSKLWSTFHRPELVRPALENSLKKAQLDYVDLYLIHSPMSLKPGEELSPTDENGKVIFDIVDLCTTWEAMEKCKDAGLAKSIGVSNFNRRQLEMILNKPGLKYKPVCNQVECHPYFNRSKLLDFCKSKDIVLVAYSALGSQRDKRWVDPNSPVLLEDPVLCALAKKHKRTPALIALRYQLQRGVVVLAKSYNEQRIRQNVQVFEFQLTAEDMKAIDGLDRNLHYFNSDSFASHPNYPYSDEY
# assay.name: Inhibition of recombinant human AKR1C3 expressed in Escherichia coli BL21 cells in presence of 9,10-phenanthrenequinone and NADPH by fluorescence assay
readout.label: pIC50
Entry type: numeric. Quantity: pIC50, the -log10 of concentration in molar units.

Previously resolved entries follow.
[
  {
    "molecule": "COc1ccc(N2C(C(=O)c3ccccc3)=C(O)C(=O)C2c2ccc(F)cc2)c(OC)c1 (configuration not stated)",
    "test.target": "Aldo-keto reductase family 1 member C3 (Homo sapiens, UniProt P42330)",
    "pIC50": 5.11
  },
  {
    "molecule": "CCCCc1n[nH]c2c1C(c1cc(OC)c(O)c([N+](=O)[O-])c1)C(C#N)=C(N)O2 (configuration not stated)",
    "test.target": "Aldo-keto reductase family 1 member C3 (Homo sapiens, UniProt P42330)",
    "pIC50": 6.67
  },
  {
    "molecule": "COc1cc(C2C(C#N)=C(N)Oc3[nH]nc(CCCc4ccccc4)c32)cc([N+](=O)[O-])c1O (configuration not stated)",
    "test.target": "Aldo-keto reductase family 1 member C3 (Homo sapiens, UniProt P42330)",
    "pIC50": 6.33
  }
]

stdin: Entry Cc1ccc(Cl)c(Nc2ccccc2C(=O)O)c1Cl : reported pIC50 = ?
stdout: 6.29

stdin: Entry CCCCCCCc1n[nH]c2c1C(c1cc(OC)c(O)c([N+](=O)[O-])c1)C(C#N)=C(N)O2 (configuration not stated) : reported pIC50 = ?
stdout: 6.16

stdin: Entry CCCc1n[nH]c2c1C(c1ccc(O)c([N+](=O)[O-])c1)C(C#N)=C(N)O2 (configuration not stated) : reported pIC50 = ?
stdout: 6.56

stdin: Entry O=C1C=C/C(=C\NNc2nc(N3CCOCC3)nc(N3CCOCC3)n2)C=C1[N+](=O)[O-] : reported pIC50 = ?
stdout: 5.84

stdin: Entry CCCCCCc1n[nH]c2c1C(c1cc(OC)c(O)c([N+](=O)[O-])c1)C(C#N)=C(N)O2 (configuration not stated) : reported pIC50 = ?
stdout: 6.77

stdin: Entry CCCc1n[nH]c2c1C(c1ccc(O)cc1)C(C#N)=C(N)O2 (configuration not stated) : reported pIC50 = ?
stdout: 5.17

* * *

# test.target: Aldo-keto reductase family 1 member C1 (Homo sapiens)
# Sequence (Q04828 whole entry): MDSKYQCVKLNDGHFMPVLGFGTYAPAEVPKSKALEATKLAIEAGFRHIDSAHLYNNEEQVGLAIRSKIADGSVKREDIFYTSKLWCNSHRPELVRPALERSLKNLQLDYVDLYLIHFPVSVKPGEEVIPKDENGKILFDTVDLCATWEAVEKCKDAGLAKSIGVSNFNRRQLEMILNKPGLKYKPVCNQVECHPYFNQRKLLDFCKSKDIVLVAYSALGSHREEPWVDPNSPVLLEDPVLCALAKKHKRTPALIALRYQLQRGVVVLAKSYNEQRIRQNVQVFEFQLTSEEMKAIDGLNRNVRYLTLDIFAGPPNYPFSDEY
# assay.name: Inhibition of recombinant human AKR1C1 expressed in Escherichia coli BL21 cells in presence of 9,10-phenanthrenequinone and NADPH by fluorescence assay
pIC50: −log10 of the molar value.
Classification field: enter criterion met for pIC50 values not below 6, criterion not met for values below it.

Recorded results for 4 compounds are shown here.
[
  {
    "compound": "CCCc1nn(C)c2c1C(c1cc(OC)c(O)c([N+](=O)[O-])c1)C(C#N)=C(N)O2 (stereo not drawn)",
    "class.name": "criterion met"
  },
  {
    "compound": "O=C1C=C/C(=C\\NNc2nc(N3CCOCC3)nc(N3CCOCC3)n2)C=C1[N+](=O)[O-]",
    "class.name": "criterion not met"
  },
  {
    "compound": "CCCCCc1n[nH]c2c1C(c1cc(OC)c(O)c([N+](=O)[O-])c1)C(C#N)=C(N)O2 (stereo not drawn)",
    "class.name": "criterion met"
  },
  {
    "compound": "COc1cc(C2C(C#N)=C(N)Oc3[nH]nc(C)c32)cc([N+](=O)[O-])c1O (stereo not drawn)",
    "class.name": "criterion met"
  }
]

stdin: State whether the measured pIC50 reaches 6, counting equality as reaching it, for COc1cc(C2C(C#N)=C(N)Oc3[nH]nc(CCC4CCCCC4)c32)cc([N+](=O)[O-])c1O (stereo not drawn)
stdout: criterion met

stdin: State whether the measured pIC50 reaches 6, counting equality as reaching it, for CCCc1n[nH]c2c1C(c1ccc(O)cc1)C(C#N)=C(N)O2 (stereo not drawn)
stdout: criterion not met

stdin: State whether the measured pIC50 reaches 6, counting equality as reaching it, for CCCc1nn(-c2ccccn2)c2c1C(c1cc(OC)c(O)c([N+](=O)[O-])c1)C(C#N)=C(N)O2 (stereo not drawn)
stdout: criterion not met
